System: Staphylococcus aureus
METHOD_SUMMARY: Antibacterial activity against Staphylococcus aureus ATCC 25923 assessed as growth inhibition after 18 hrs by two-fold serial dilution method
Assay type: functional
CONDITION_LABEL: ATCC 25923, 18 h
ENDPOINT: MIC (µg/mL)
Give the number; µg/mL is assumed, so skip it.

Known results for compounds:
>>> numeric_readout("O=C(O)c1cn(C2CC2)c2cc(N3CCNCC3)c(F)cc2c1=O [CIPROFLOXACIN]")
0.5
>>> numeric_readout("Cc1c2c3cc(NC(=O)[C@@H]4CCCN4)ccc3nc-2n(C)c2ccccc12.Cl.Cl")
50
>>> numeric_readout("Cc1c2c3ccccc3nc-2n(C)c2ccccc12")
200

IN: GET /values?readout=MIC&item= `Cc1c2c3cc(NC(=O)CN)ccc3nc-2n(C)c2ccccc12.Cl.Cl`
OUT: 50

IN: GET /values?readout=MIC&item= `Cc1c2c3ccccc3nc-2n(C)c2ccc(NC(=O)[C@@H]3CCCN3)cc12.Cl`
OUT: 50

IN: GET /values?readout=MIC&item= `Cc1c2c3ccccc3nc-2n(C)c2ccc(NC(=O)CN)cc12.Cl`
OUT: 12.5

###

This section presents compounds with their documented log10(MIC) values.
Test system: Candida parapsilosis
METHOD_SUMMARY: Antifungal activity against Candida parapsilosis ATCC 22019 assessed as growth inhibition after 18 hrs by two-fold serial dilution method
Assay type: functional
CONDITION_LABEL: Lodderomyces parapsilosis, ATCC 22019, 18 h
// units: µg/mL (pre-log); metric: MIC; scale: log10

Known results for compounds:
>>> numeric_readout("OC(Cn1cncn1)(Cn1cncn1)c1ccc(F)cc1F")
0.30
>>> numeric_readout("Cc1c2c3cc(NC(=O)[C@@H]4CCCN4)ccc3nc-2n(C)c2ccccc12.Cl.Cl")
2.30

IN: GET /values?readout=log10(MIC)&item= `Cc1c2c3ccccc3nc-2n(C)c2ccc(NC(=O)CN)cc12.Cl`
OUT: 2.00

IN: GET /values?readout=log10(MIC)&item= `Cc1c2c3cc(NC(=O)CNC(=O)CN)ccc3nc-2n(C)c2ccccc12.Cl.Cl`
OUT: 2.30

IN: GET /values?readout=log10(MIC)&item= `Cc1c2c3cc(NC(=O)CNC(=O)[C@@H]4CCCN4)ccc3nc-2n(C)c2ccccc12.Cl.Cl`
OUT: 2.30

IN: GET /values?readout=log10(MIC)&item= `Cc1c2c3cc(NC(=O)CN)ccc3nc-2n(C)c2ccccc12.Cl.Cl`
OUT: 1.40

IN: GET /values?readout=log10(MIC)&item= `Cc1c2c3ccccc3nc-2n(C)c2ccc(NC(=O)[C@@H]3CCCN3)cc12.Cl`
OUT: 1.70

IN: GET /values?readout=log10(MIC)&item= `Cc1c2c3ccccc3nc-2n(C)c2ccccc12`
OUT: 1.10

###

Test system: MCF7
METHOD_SUMMARY: Cytotoxicity against human MCF7 cells assessed as growth inhibition after 72 hrs by SRB assay
Assay type: functional, cell-based
CONDITION_LABEL: MCF7, 72 h
ENDPOINT: pIC50
Quick note: pIC50 values are minus log10 of concentrations in mol/L.

Known results for molecules:
>>> numeric_readout("Cc1c2c3ccccc3nc-2n(C)c2ccc(NC(=O)CNC(=O)CN)cc12.Cl")
5.39
>>> numeric_readout("Cc1c2c3ccccc3nc-2n(C)c2ccc(NC(=O)CN)cc12.Cl")
6.34

Now examine the next entry.
IN: Query pIC50 on MCF7 for `Cc1c2c3ccccc3nc-2n(C)c2ccc(NC(=O)[C@@H]3CCCN3)cc12.Cl`
OUT: 6.21

###

Tested on: Micrococcus luteus
METHOD_SUMMARY: Antibacterial activity against Micrococcus luteus ATCC 10240 assessed as growth inhibition after 18 hrs by two-fold serial dilution method
Assay type: functional
CONDITION_LABEL: ATCC 10240, 18 h
This section presents compounds with their documented MIC values.
Give the number; µg/mL is assumed, so skip it.

Known results for compounds:
>>> numeric_readout("Cc1c2c3ccccc3nc-2n(C)c2ccc(NC(=O)[C@@H]3CCCN3)cc12.Cl")
6.25
>>> numeric_readout("O=C(O)c1cn(C2CC2)c2cc(N3CCNCC3)c(F)cc2c1=O")
1
>>> numeric_readout("Cc1c2c3cc(NC(=O)CNC(=O)[C@@H]4CCCN4)ccc3nc-2n(C)c2ccccc12.Cl.Cl")
50

IN: GET /values?readout=MIC&item= `Cc1c2c3ccccc3nc-2n(C)c2ccc(NC(=O)CN)cc12.Cl`
OUT: 12.5

IN: GET /values?readout=MIC&item= `Cc1c2c3cc(NC(=O)CN)ccc3nc-2n(C)c2ccccc12.Cl.Cl`
OUT: 6.25

IN: GET /values?readout=MIC&item= `Cc1c2c3cc(NC(=O)[C@@H]4CCCN4)ccc3nc-2n(C)c2ccccc12.Cl.Cl`
OUT: 6.25

IN: GET /values?readout=MIC&item= `Cc1c2c3ccccc3nc-2n(C)c2ccccc12`
OUT: 50

IN: GET /values?readout=MIC&item= `Cc1c2c3cc(NC(=O)CNC(=O)CN)ccc3nc-2n(C)c2ccccc12.Cl.Cl`
OUT: 200

###

System: Micrococcus luteus
METHOD_SUMMARY: Antibacterial activity against Micrococcus luteus ATCC 9341 assessed as growth inhibition after 18 hrs by two-fold serial dilution method
CONDITION_LABEL: ATCC 9341, 18 h
ENDPOINT: MIC (µg/mL)
Give the number; µg/mL is assumed, so skip it.

>>> numeric_readout("Cc1c2c3cc(NC(=O)[C@@H]4CCCN4)ccc3nc-2n(C)c2ccccc12.Cl.Cl")
6.25
>>> numeric_readout("Cc1c2c3ccccc3nc-2n(C)c2ccccc12")
50
>>> numeric_readout("Cc1c2c3cc(NC(=O)CNC(=O)CN)ccc3nc-2n(C)c2ccccc12.Cl.Cl")
200
>>> numeric_readout("O=C(O)c1cn(C2CC2)c2cc(N3CCNCC3)c(F)cc2c1=O")
2

IN: GET /values?readout=MIC&item= `Cc1c2c3ccccc3nc-2n(C)c2ccc(NC(=O)CN)cc12.Cl`
OUT: 6.25

IN: GET /values?readout=MIC&item= `Cc1c2c3ccccc3nc-2n(C)c2ccc(NC(=O)[C@@H]3CCCN3)cc12.Cl`
OUT: 6.25

IN: GET /values?readout=MIC&item= `Cc1c2c3cc(NC(=O)CN)ccc3nc-2n(C)c2ccccc12.Cl.Cl`
OUT: 6.25

IN: GET /values?readout=MIC&item= `Cc1c2c3cc(NC(=O)CNC(=O)[C@@H]4CCCN4)ccc3nc-2n(C)c2ccccc12.Cl.Cl`
OUT: 50

###

Tested on: Candida albicans
METHOD_SUMMARY: Antifungal activity against Candida albicans SN250 assessed as growth inhibition after 18 hrs by two-fold serial dilution method
Format: functional
CONDITION_LABEL: SN250, 18 h
This section presents compounds with their documented MIC values.

>>> result("Cc1c2c3ccccc3nc-2n(C)c2ccc(NC(=O)CNC(=O)CN)cc12.Cl")
"> 500 µg/mL"
>>> result("Cc1c2c3cc(NC(=O)CN)ccc3nc-2n(C)c2ccccc12.Cl.Cl")
"15.6 µg/mL"
>>> result("Cc1c2c3cc(NC(=O)CNC(=O)[C@@H]4CCCN4)ccc3nc-2n(C)c2ccccc12.Cl.Cl")
"200 µg/mL"

IN: Query MIC on Candida albicans for `Cc1c2c3ccccc3nc-2n(C)c2ccccc12`
OUT: 12.5 µg/mL

IN: Query MIC on Candida albicans for `Cc1c2c3cc(NC(=O)CNC(=O)CN)ccc3nc-2n(C)c2ccccc12.Cl.Cl`
OUT: 200 µg/mL

IN: Query MIC on Candida albicans for `Cc1c2c3cc(NC(=O)[C@@H](N)Cc4cnc[nH]4)ccc3nc-2n(C)c2ccccc12.Cl`
OUT: 125 µg/mL

###

Tested on: Candida parapsilosis
METHOD_SUMMARY: Antifungal activity against Candida parapsilosis ATCC 22019 assessed as growth inhibition after 18 hrs by two-fold serial dilution method
Type: functional
CONDITION_LABEL: Lodderomyces parapsilosis, ATCC 22019, 18 h
ENDPOINT: MIC

Known results for compounds:
>>> result("Cc1c2c3ccccc3nc-2n(C)c2ccc(NC(=O)CNC(=O)CN)cc12.Cl")
"> 200 µg/mL"
>>> result("Cc1c2c3ccccc3nc-2n(C)c2ccc(NC(=O)[C@@H](N)Cc3cnc[nH]3)cc12.Cl")
"> 200 µg/mL"

Now examine the next entry.
IN: Query MIC on Candida parapsilosis for `Cc1c2c3cc(NC(=O)[C@@H](N)Cc4cnc[nH]4)ccc3nc-2n(C)c2ccccc12.Cl`
OUT: > 200 µg/mL

###

This section presents molecules with their documented MIC values.
Tested on: Micrococcus luteus
METHOD_SUMMARY: Antibacterial activity against Micrococcus luteus ATCC 10240 assessed as growth inhibition after 18 hrs by two-fold serial dilution method
Assay type: functional
CONDITION_LABEL: ATCC 10240, 18 h

Known results for molecules:
>>> result("Cc1c2c3ccccc3nc-2n(C)c2ccc(NC(=O)CNC(=O)CN)cc12.Cl")
"> 200 µg/mL"
>>> result("Cc1c2c3cc(NC(=O)[C@@H](N)Cc4cnc[nH]4)ccc3nc-2n(C)c2ccccc12.Cl")
"> 200 µg/mL"

Now examine the next entry.
IN: Query MIC on Micrococcus luteus for `Cc1c2c3ccccc3nc-2n(C)c2ccc(NC(=O)[C@@H](N)Cc3cnc[nH]3)cc12.Cl`
OUT: > 200 µg/mL
